Data origin, for the record: PubChem BioAssay

Measured target: GTPase HRas (Homo sapiens) (UniProt P01112)
Sequence (P01112 whole entry, looked up): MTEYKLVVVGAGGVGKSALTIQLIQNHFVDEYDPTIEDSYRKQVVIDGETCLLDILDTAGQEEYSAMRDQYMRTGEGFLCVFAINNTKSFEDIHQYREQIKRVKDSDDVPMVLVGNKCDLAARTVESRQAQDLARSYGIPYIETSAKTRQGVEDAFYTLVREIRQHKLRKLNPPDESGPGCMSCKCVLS
Test description: Ras wt fluorescent GTP loading blockade – biochemical, wildtype, multiplex bead flow cytometry, dose response (AID 1335)
Experimental context: bead-based flow cytometry, Bodipy-GTP binding to GST-Ras; at 100 µM (top of the series) unless noted
Quantity: GTP binding, percent of control (%)
Could you give me the number in %? Just the number is fine.

Recorded GTP binding, percent of control for `COc1ccc(Nc2nc(-c3c(C)nc4ncccn34)cs2)cc1` with GTPase HRas (Homo sapiens) (UniProt P01112), please? 66

Also, `COc1ccccc1OCCn1cc(C(=O)O)c2ccc(C)cc21` please. 184

And then `CCOC(=O)N1CCN(C(=O)CCc2ccc(S(=O)(=O)NCCc3ccccc3)cc2)CC1` , what is it? 57.7

Would you kindly repeat that for `COc1cccc(OC)c1-c1nn2c(-c3cc(-c4ccccc4)n[nH]3)nnc2s1` ? 1380

Check `N#C/C(=C/c1ccc(-c2cc(C(=O)O)cc(C(=O)O)c2)o1)c1nc2ccccc2s1` too. 66.4

Also `Cn1c(=O)c2cc(S(=O)(=O)NCCC(=O)NCc3ccccc3Cl)ccc2n(C)c1=O` ? 109

What do you have for `COc1cc(NC(=O)c2cccs2)c(OC)cc1NC(=O)CCC(=O)Nc1cccc2ncccc12` ? 72.4

Okay, and `CCOc1ccc(/C=C2\SC(N3CCc4ccccc4C3)=NC2=O)cc1` ? 59.8

Now the same for `COc1cccc(-n2nc3c(-n4ncc(C#N)c4N)nnc(C)c3c2C)c1` 64.6

Quick one: `O=C(COC(=O)/C=C/c1ccc(Cl)cc1)Nc1ccc2c(c1)OCCO2` 59.5

Item: `CCOC(=O)c1c2c3c(cccc3[nH]c1=O)C(=O)c1ccccc1-2` 77.9

Check `Cc1ccccc1CSc1ncccc1C(=O)O` too. 87.9

Here is the next compound: `CCOc1nnc(C)c2c(C)n(-c3cccc(OC)c3)nc12` 67.2

# repeat for `O=C(C#Cc1ccccc1)c1ccc([N+](=O)[O-])cc1` 74.2

Then what about the compound `O=C(O)c1ccc(NS(=O)(=O)c2ccc3c(c2)C(=O)c2ccccc2C3=O)cc1` ? 69

Can you handle `COc1cc(NS(=O)(=O)c2ccc(NC(=O)/C=C/c3cccc([N+](=O)[O-])c3)cc2)ncn1` next? 77.7

Now the compound `COc1ccc(/C=C2/N=C(SCC(=O)Nc3cc(C)on3)N(c3ccccc3)C2=O)cc1` 54.1

Next compound: `COc1cc(/C=C/c2ccc3cccc([N+](=O)[O-])c3n2)ccc1OCC(=O)O` 76.2

Next up: `COc1ccc(CC(=O)Nc2ccc(S(=O)(=O)NC(C)C)cc2)cc1` 66.7

And the next one, `Cn1nnnc1Sc1ncnc2scc(-c3ccc(F)cc3)c12` ? 64.5

# repeat for Cc1c(Cl)cccc1NS(=O)(=O)c1ccc2c(c1)C1C=CCC1C(c1ccc(C(=O)O)cc1)N2 (stereo not drawn) 72.9

For `COc1ccccc1OCCn1cc(C(=O)O)c2cccc(C)c21` then? 200

Follow-up entry: `CCN1CCN(c2nc3c(c(=O)n(C)c(=O)n3C)n2Cc2cccc3ccccc23)CC1` 92.2

Would you mind doing `COc1ccc(-c2nn(-c3ccccc3)cc2C(=O)NCCCn2ccnc2)cc1` as well? 61.1

Please answer likewise for `Cc1ccccc1OCCn1cc(C(=O)O)c2ccccc21` 131

Next entry: `O=C(C#Cc1ccccn1)c1ccc([N+](=O)[O-])cc1` 162

Further, for `CCCc1cc(-n2ccnc2)n2c(nc3ccccc32)c1C#N` ? 195

Follow-up item: `CCOc1ccccc1NC(=O)CSc1ccc2nnc(-c3cccnc3)n2n1` 65.1

Consider next the compound `Cc1nn(CCc2nn[nH]n2)c2nc(-c3ccc(C4CCCCC4)cc3)cc(C(F)(F)F)c12` in the same way. 79.4

Subsequent entry: COc1cccc(C2CC(c3ccccc3)Nc3ncnn32)c1 (stereo not drawn) 80.1

What about this compound? `CC(=O)c1ccc(C#CC(=O)c2ccc([N+](=O)[O-])cc2)cc1` 204

Subsequent entry: `COc1ccc(C(=O)/C=C/Nc2ccc(S(=O)(=O)Nc3nc(C)cc(C)n3)cc2)cc1OC` 80

`CCN(CC)c1ccc(/C=C/C(=O)c2ccc(Br)cc2)cc1` , same question. 319
